- target-entity: EZH2 (Homo sapiens (Human))
- Sequence (Q15910 whole entry): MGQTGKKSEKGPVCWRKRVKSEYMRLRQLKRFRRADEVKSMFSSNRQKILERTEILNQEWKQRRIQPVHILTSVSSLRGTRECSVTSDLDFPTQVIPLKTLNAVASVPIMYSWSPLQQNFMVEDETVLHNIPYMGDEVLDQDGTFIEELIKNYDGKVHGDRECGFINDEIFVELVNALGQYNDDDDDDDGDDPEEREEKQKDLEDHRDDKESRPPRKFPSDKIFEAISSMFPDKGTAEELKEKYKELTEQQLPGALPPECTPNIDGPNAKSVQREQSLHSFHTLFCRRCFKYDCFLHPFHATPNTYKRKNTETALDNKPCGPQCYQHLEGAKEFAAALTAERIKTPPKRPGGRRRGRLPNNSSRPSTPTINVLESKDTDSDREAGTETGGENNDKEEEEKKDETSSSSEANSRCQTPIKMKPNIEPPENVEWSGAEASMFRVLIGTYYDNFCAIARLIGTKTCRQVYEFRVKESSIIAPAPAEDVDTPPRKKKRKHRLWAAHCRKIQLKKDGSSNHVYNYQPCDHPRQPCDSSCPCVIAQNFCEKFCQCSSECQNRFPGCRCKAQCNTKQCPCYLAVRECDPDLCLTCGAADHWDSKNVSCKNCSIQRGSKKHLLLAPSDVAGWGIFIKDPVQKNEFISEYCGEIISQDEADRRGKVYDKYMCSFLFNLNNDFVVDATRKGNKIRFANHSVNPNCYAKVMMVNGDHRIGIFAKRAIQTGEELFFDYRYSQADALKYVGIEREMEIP
- Sequence (Q15022 whole entry partner): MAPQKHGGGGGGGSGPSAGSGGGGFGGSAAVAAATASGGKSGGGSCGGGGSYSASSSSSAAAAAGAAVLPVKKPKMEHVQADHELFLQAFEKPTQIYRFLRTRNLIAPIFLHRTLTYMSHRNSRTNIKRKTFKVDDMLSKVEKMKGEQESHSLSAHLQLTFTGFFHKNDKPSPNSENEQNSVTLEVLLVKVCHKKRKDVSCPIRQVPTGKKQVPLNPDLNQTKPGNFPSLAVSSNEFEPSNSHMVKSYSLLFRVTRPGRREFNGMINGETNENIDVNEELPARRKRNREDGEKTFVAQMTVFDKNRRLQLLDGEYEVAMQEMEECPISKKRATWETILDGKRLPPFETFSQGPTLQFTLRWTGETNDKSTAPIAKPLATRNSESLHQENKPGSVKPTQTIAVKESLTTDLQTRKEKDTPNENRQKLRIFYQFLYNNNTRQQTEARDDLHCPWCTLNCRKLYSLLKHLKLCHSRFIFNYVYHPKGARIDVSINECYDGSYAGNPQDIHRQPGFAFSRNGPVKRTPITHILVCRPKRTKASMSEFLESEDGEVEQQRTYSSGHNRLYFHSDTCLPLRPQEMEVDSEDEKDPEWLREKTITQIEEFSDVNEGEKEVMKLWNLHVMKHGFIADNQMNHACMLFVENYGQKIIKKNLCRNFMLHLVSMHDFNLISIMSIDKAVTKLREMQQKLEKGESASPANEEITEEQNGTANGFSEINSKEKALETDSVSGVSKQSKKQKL
- Sequence (O75530 whole entry partner): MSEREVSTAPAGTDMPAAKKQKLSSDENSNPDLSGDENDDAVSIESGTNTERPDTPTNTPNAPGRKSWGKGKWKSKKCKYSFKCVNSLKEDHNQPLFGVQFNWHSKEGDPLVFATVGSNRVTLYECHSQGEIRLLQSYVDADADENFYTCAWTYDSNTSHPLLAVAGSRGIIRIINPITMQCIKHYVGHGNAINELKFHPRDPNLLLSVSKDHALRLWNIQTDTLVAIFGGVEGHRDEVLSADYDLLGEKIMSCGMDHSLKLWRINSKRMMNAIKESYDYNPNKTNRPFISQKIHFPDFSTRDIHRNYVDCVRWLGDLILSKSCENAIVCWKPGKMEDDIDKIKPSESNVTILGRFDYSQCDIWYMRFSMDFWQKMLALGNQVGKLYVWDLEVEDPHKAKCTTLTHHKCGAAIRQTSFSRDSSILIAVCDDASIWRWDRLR
- Sequence (Q09028 whole entry partner): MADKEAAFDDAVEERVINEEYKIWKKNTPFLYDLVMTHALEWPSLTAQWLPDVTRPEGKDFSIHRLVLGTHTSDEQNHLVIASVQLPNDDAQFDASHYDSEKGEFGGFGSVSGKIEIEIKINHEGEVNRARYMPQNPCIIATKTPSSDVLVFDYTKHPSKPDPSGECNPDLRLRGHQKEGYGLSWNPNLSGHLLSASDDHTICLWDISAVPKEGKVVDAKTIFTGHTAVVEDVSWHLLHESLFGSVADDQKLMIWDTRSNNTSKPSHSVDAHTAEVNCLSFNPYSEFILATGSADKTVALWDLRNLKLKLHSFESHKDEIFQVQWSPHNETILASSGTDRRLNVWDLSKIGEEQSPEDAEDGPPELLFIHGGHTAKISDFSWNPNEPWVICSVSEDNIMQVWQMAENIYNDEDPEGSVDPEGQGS
- measurement-description: ELISA (H3K27 methylation) assay in G401 cell
- Format: cell-based
- assay-conditions: (b) ELISA Qualified assay, 48 h
recorded-metric: IC50 (µM)

// solved cases for IC50 follow
- O=C(NC1COC1)C(CO)c1cnc(NC[C@H]2CC[C@H](Nc3ccc4ccnc(Cl)c4n3)CC2)nc1 (stereo partly shown): 0.056
- CN(C)C1CCN(C(=O)Cc2cnc(NC[C@H]3CC[C@H](Nc4ccc5ccnc(Cl)c5n4)CC3)nc2)C1 (stereo partly shown): 0.02
- CCN(CCC#N)C(=O)Cc1cnc(NC[C@H]2CC[C@H](Nc3ccc4ccnc(Cl)c4n3)CC2)nc1: 0.027
- O=C(Cc1cnc(NC[C@H]2CC[C@H](Nc3ccc4ccnc(Cl)c4n3)CC2)nc1)N1CCN(CCO)CC1: 0.028

[A] COc1nccc2ccc(N[C@H]3CC[C@H](CNc4ncc(C(=O)N5CCN(C)CC5)cn4)CC3)nc12
[B] COc1nccc2ccc(N[C@H]3CC[C@H](CNc4ncc(NC(=O)C5CNC5)cn4)CC3)nc12
[C] Clc1nccc2ccc(N[C@H]3CC[C@H](CNc4ncc(CNCC5COC5)cn4)CC3)nc12
Please list these molecules in decreasing order of IC50. Please list the labels in the order you were asked to rank them.
B, C, A

###

- target-entity: wild type PRC2 (wtPRC2) complex (Homo sapiens (Human))
- measurement-description: EZH2 LC-MS assay (LC-Qualified)
- Assay type: biochemical
- assay-conditions: (a) LC-Qualified assay
recorded-metric: IC50 (µM)

Recorded results for 3 compounds are shown here.
• O=C(c1cnc(NC[C@H]2CC[C@H](Nc3ccc4ccnc(Cl)c4n3)CC2)nc1)N1CCOCC1 = 0.046
• O=C1OCCN1c1cnc(NC[C@H]2CC[C@H](Nc3ccc4ccnc(Cl)c4n3)CC2)nc1 = 0.053
• Nc1cnc(NC[C@H]2CC[C@H](Nc3ccc4ccnc(OC(F)F)c4n3)CC2)nc1 = 0.204

[P] COc1nccc2ccc(N[C@H]3CC[C@H](CNc4ncc(C(=O)N5CCNCC5)cn4)CC3)nc12
[Q] N#CCCN(C(=O)Cc1cnc(NC[C@H]2CC[C@H](Nc3ccc4ccnc(Cl)c4n3)CC2)nc1)C1COC1
Pick the one with the larger IC50: P vs Q // output: label of the selected item
P
(P: 0.07 µM, Q: 0.008 µM)

###

- target-entity: wild type PRC2 (wtPRC2) complex (Homo sapiens (Human), UniProt Q15910)
- Sequence (Q6ZN18 whole entry partner, one chain of several): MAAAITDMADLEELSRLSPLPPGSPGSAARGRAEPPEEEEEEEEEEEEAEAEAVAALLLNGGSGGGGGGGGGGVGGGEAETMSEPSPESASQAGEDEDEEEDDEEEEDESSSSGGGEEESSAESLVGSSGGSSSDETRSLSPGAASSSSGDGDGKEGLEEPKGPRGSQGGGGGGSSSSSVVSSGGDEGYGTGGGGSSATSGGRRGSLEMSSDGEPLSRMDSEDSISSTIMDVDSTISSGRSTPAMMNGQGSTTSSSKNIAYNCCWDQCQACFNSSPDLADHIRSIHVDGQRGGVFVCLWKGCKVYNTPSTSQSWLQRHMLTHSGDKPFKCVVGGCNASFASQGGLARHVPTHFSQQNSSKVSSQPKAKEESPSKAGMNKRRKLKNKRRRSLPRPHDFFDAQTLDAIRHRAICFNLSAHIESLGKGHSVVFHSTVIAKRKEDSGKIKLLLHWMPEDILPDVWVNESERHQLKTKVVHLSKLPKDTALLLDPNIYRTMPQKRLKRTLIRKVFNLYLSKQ
- measurement-description: EZH2 LC-MS assay (LC-Qualified)
- Assay type: biochemical
- assay-conditions: (a) LC-Qualified assay
recorded-metric: IC50 (µM)

[P] CC1(NCCc2cnc(NC[C@H]3CC[C@H](Nc4ccc5ccnc(Cl)c5n4)CC3)nc2)COC1
[Q] O=C(Cc1cnc(NC[C@H]2CC[C@H](Nc3ccc4ccnc(Cl)c4n3)CC2)nc1)NC1COC1
Which entry shows the lesser value of IC50 here, P or Q ? Which one? Tell me its label.
Q
(Q: 0.009 µM, P: 0.051 µM)

[a] CC(C(=O)N1CC(O)C1)c1cnc(NC[C@H]2CC[C@H](Nc3ccc4ccnc(Cl)c4n3)CC2)nc1 (mixture of isomers)
[b] COc1nccc2ccc(N[C@H]3CC[C@H](CNc4ncc(C(N)=O)cn4)CC3)nc12
Compare the recorded IC50 of a and b ; state which is larger. In your reply, give the label of the chosen option.
b
